TSα activity, % of control listing for selected molecules.
Target: Arabidopsis TS enzyme (Arabidopsis thaliana, UniProt Q42529)
Construct: GST (N, cleaved yes); made in house; host or cells: E. coli DH5α (pGEX-2T constructs)
Sequence (Q42529 with tags, fused parts or gaps): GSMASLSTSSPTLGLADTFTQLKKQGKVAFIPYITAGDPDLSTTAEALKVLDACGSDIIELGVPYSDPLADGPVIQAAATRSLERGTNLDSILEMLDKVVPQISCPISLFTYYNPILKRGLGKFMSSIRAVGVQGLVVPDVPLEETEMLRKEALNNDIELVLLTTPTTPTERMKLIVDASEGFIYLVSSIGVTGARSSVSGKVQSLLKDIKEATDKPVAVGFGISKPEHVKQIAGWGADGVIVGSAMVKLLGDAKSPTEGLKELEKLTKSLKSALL
Sequence (P14671 with tags, fused parts or gaps partner): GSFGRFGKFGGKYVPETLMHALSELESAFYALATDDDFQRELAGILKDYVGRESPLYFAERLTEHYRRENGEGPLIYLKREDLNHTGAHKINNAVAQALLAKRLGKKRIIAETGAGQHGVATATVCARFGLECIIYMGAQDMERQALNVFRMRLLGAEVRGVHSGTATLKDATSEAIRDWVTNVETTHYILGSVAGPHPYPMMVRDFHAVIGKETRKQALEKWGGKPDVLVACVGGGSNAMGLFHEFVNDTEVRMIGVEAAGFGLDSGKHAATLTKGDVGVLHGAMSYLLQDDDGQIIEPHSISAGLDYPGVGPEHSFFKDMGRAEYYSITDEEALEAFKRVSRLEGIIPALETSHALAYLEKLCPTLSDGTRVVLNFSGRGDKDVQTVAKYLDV
Test: TSα assay with recombinant plant TSα and TSβ expressed in E. coli
Assay type: biochemical
Conditions: inhibitor 82 uM; pAC 758 (1.5 ug) + pAC 755 (3 ug)

Look over these answered cases.
molecule: O=C(Oc1ccccc1SCCCCP(=O)(O)O)c1ccccc1
TSα activity, % of control: 2.7 % of control
--
molecule: O=P(O)(O)CCCC[S+]([O-])c1ccccc1O (stereo not drawn)
TSα activity, % of control: 1.5 % of control
--
molecule: O=P(O)(O)C=CCCSc1cc(Br)ccc1O
TSα activity, % of control: 16.1 % of control

Entry O=P(O)(O)CC=CCSc1ccccc1O : TSα activity, % of control on Arabidopsis TS enzyme (Arabidopsis thaliana, UniProt Q42529) = 14.7 % of control

Entry O=P(O)(O)OCCCc1c[nH]c2ccccc12 [Compound 1, indole-3-propanol phosphate, reference compound] : TSα activity, % of control on Arabidopsis TS enzyme (Arabidopsis thaliana, UniProt Q42529) = 35.9 % of control

Entry O=P(O)(O)CCCCS(=O)(=O)c1ccccc1O : TSα activity, % of control on Arabidopsis TS enzyme (Arabidopsis thaliana, UniProt Q42529) = 2.4 % of control
